- Assay Name: Squirrel monkey plasma levels
- Assay type: in vivo
- Settings: 15 minutes, read-out: Plasma Levels, Time in Minutes 15
Item-by-item account of concentration at 0.25 h
Readout Label: concentration at 0.25 h (ng/mL)

{"Molecule": "CC1(C)S[C@@H]2[C@H](NC(=O)[C@H](N)C=C(Cl)Cl)C(=O)N2[C@H]1C(=O)O [Example 5 (D-stereoisomer)]", "Reading": 20700}
{"Molecule": "C=C(C)[C@@H](N)C(=O)N[C@@H]1C(=O)N2[C@@H]1SC(C)(C)[C@@H]2C(=O)O", "Reading": 8700}
{"Molecule": "CC1(C)S[C@@H]2[C@H](NC(=O)[C@H](N)c3ccc(O)cc3)C(=O)N2[C@H]1C(=O)O [Amoxycillin, reference compound]", "Reading": 4800}
{"Molecule": "C=C[C@@H](N)C(=O)N[C@@H]1C(=O)N2[C@@H]1SC(C)(C)[C@@H]2C(=O)O", "Reading": 4000}

----------
- Test system: S.pyogenes CN 10
- Assay Name: Minimum Inhibitory Concentration (MIC), agar dilution
- Assay type: cell-based
- Settings: 5% v/v horse blood agar, two-fold dilutions, read after 24 hours; unit assumed
MIC S. pyogenes CN 10 listing for selected molecules.
Readout Label: MIC S. pyogenes CN 10

{"Molecule": "C/C=C(\\C)[C@@H](N)C(=O)N[C@@H]1C(=O)N2[C@@H]1SC(C)(C)[C@@H]2C(=O)O [Example 10 (D-stereoisomer)]", "Readout Label": "MIC S. pyogenes CN 10", "Reading": "< 0.06 µg/mL"}
{"Molecule": "C=C(CC)[C@@H](N)C(=O)N[C@@H]1C(=O)N2[C@@H]1SC(C)(C)[C@@H]2C(=O)O [Example 9 (D-stereoisomer)]", "Readout Label": "MIC S. pyogenes CN 10", "Reading": "< 0.03 µg/mL"}
{"Molecule": "CC(=O)OC/C=C/[C@@H](N)C(=O)N[C@@H]1C(=O)N2[C@@H]1SC(C)(C)[C@@H]2C(=O)O", "Readout Label": "MIC S. pyogenes CN 10", "Reading": "0.12 µg/mL"}

----------
This listing pairs compounds with measured MIC S. pyogenes CN 10.
- System: S.pyogenes CN 10
- Assay Name: Minimum Inhibitory Concentration (MIC), agar dilution
- Format: cell-based
- Settings: 5% v/v horse blood agar, two-fold dilutions, read after 24 hours; unit assumed
Readout Label: MIC S. pyogenes CN 10

{"Compound": "C=C(c1ccccc1)[C@@H](N)C(=O)N[C@@H]1C(=O)N2[C@@H]1SC(C)(C)[C@@H]2C(=O)O [Example 4 (D-stereoisomer)]", "Reading": "< 0.03 µg/mL"}
{"Compound": "C/C(=C/Cl)C(N)C(=O)N[C@@H]1C(=O)N2[C@@H]1SC(C)(C)[C@@H]2C(=O)O (stereo partly shown)", "Reading": "0.12 µg/mL"}
{"Compound": "CC1(C)S[C@@H]2[C@H](NC(=O)C(N)/C(=C/Cl)c3cccs3)C(=O)N2[C@H]1C(=O)O (stereo partly shown)", "Reading": "< 0.03 µg/mL"}
{"Compound": "CC/C=C/[C@@H](N)C(=O)N[C@@H]1C(=O)N2[C@@H]1SC(C)(C)[C@@H]2C(=O)O [Example 13 (D-stereoisomer)]", "Reading": "< 0.06 µg/mL"}

----------
- Assay Name: Squirrel monkey plasma levels
- Type: in vivo
- Settings: 360 minutes, read-out: Plasma Levels, Time in Minutes 360

{"Compound": "C=C(C)[C@@H](N)C(=O)N[C@@H]1C(=O)N2[C@@H]1SC(C)(C)[C@@H]2C(=O)O [Example 6]", "Units Of Measure": "ng/mL", "concentration at 6 h": 900}
{"Compound": "CC1(C)S[C@@H]2[C@H](NC(=O)[C@H](N)C=C(Cl)Cl)C(=O)N2[C@H]1C(=O)O [Example 5 (D-stereoisomer)]", "Units Of Measure": "ng/mL", "concentration at 6 h": 1400}
{"Compound": "CC1(C)S[C@@H]2[C@H](NC(=O)[C@H](N)c3ccc(O)cc3)C(=O)N2[C@H]1C(=O)O [Amoxycillin, reference compound]", "Units Of Measure": "ng/mL", "concentration at 6 h": 300}
{"Compound": "C=C[C@@H](N)C(=O)N[C@@H]1C(=O)N2[C@@H]1SC(C)(C)[C@@H]2C(=O)O [Example 1]", "Units Of Measure": "ng/mL", "concentration at 6 h": 800}

----------
Overview of reported concentration at 4 h across a group of compounds:
- Assay Name: Squirrel monkey plasma levels
- Type: in vivo
- Settings: 240 minutes, read-out: Plasma Levels, Time in Minutes 240

{"Compound": "C=C(C)[C@@H](N)C(=O)N[C@@H]1C(=O)N2[C@@H]1SC(C)(C)[C@@H]2C(=O)O", "concentration at 4 h": "2200 ng/mL"}
{"Compound": "CC1(C)S[C@@H]2[C@H](NC(=O)[C@H](N)c3ccc(O)cc3)C(=O)N2[C@H]1C(=O)O [Amoxycillin, reference compound]", "concentration at 4 h": "1100 ng/mL"}
{"Compound": "C=C[C@@H](N)C(=O)N[C@@H]1C(=O)N2[C@@H]1SC(C)(C)[C@@H]2C(=O)O", "concentration at 4 h": "2400 ng/mL"}
{"Compound": "CC1(C)S[C@@H]2[C@H](NC(=O)[C@H](N)C=C(Cl)Cl)C(=O)N2[C@H]1C(=O)O [Example 5 (D-stereoisomer)]", "concentration at 4 h": "2400 ng/mL"}

----------
- Tested on: S.pyogenes CN 10
- Assay Name: Minimum Inhibitory Concentration (MIC), agar dilution
- Format: cell-based
- Settings: 5% v/v horse blood agar, two-fold dilutions, read after 24 hours; unit assumed
Readout Label: MIC S. pyogenes CN 10

{"Compound": "C=C(C)[C@@H](N)C(=O)N[C@@H]1C(=O)N2[C@@H]1SC(C)(C)[C@@H]2C(=O)O", "Reading": "< 0.03 µg/mL"}
{"Compound": "C=C([C@@H](N)C(=O)N[C@@H]1C(=O)N2[C@@H]1SC(C)(C)[C@@H]2C(=O)O)C(F)(F)F [Example 17 (D-stereoisomer)]", "Reading": "< 0.06 µg/mL"}
{"Compound": "CC1(C)S[C@@H]2[C@H](NC(=O)[C@H](N)/C=C/c3ccccc3)C(=O)N2[C@H]1C(=O)O [Example 15 (D-stereoisomer)]", "Reading": "< 0.06 µg/mL"}
{"Compound": "C/C=C/[C@@H](N)C(=O)N[C@@H]1C(=O)N2[C@@H]1SC(C)(C)[C@@H]2C(=O)O [Example 11 (D-stereoisomer)]", "Reading": "< 0.06 µg/mL"}
{"Compound": "CC1(C)S[C@@H]2[C@H](NC(=O)C(N)/C=C/c3ccc(Cl)cc3)C(=O)N2[C@H]1C(=O)O (stereo partly shown)", "Reading": "< 0.06 µg/mL"}
{"Compound": "CC1(C)S[C@@H]2[C@H](NC(=O)[C@H](N)C=C(Cl)Cl)C(=O)N2[C@H]1C(=O)O [Example 5 (D-stereoisomer)]", "Reading": "< 0.03 µg/mL"}
{"Compound": "CC1(C)S[C@@H]2[C@H](NC(=O)[C@H](N)/C=C/C3CCCCC3)C(=O)N2[C@H]1C(=O)O [Example 14 (D-stereoisomer)]", "Reading": "< 0.06 µg/mL"}
